Where these numbers come from: ChEMBL document CHEMBL1154657

biological target: Cyclin-dependent kinase 2/cyclin E (Homo sapiens); assay: Inhibition of Cdk2/cyclinE
pIC50: −log10 of the molar value.
Attribute: pIC50
measurement_kind: pIC50

CC(C)n1cnc2c(NCc3ccc(-c4ccco4)s3)nc(N[C@H]3CC[C@H](N)CC3)nc21 ... 7.00
CC(C)n1cnc2c(NCc3ccc(-c4cccnc4)s3)nc(N[C@H]3CC[C@H](N)CC3)nc21 ... 7.00
CC(C)n1cnc2c(NCc3ccc(-c4ccccn4)cc3)nc(N[C@H]3CC[C@H](N)CC3)nc21 ... 7.00

###

target: Cyclin-dependent kinase 2/cyclin E (Homo sapiens, UniProt P24941); assay: Inhibition of Cdk2/cyclinE
pIC50: −log10 of the molar value.
measurement_kind: pIC50

CC(C)n1cnc2c(NCc3ccc(-n4cccc4)cc3)nc(N[C@H]3CC[C@H](N)CC3)nc21 ... 6.70
CC(C)n1cnc2c(NCc3ccc(-c4ccccc4)cn3)nc(N[C@H]3CC[C@H](N)CC3)nc21 ... 6.40
CC(C)n1cnc2c(NCc3ccc(-c4cccnc4)cc3)nc(N[C@H]3CC[C@H](N)CC3)nc21 ... 7.15
CC(C)n1cnc2c(NCc3ccc(-c4ccc(F)cc4)s3)nc(N[C@H]3CC[C@H](N)CC3)nc21 ... 6.52
CC(C)n1cnc2c(NCc3ccc(-n4cccn4)nc3)nc(N[C@H]3CC[C@H](N)CC3)nc21 ... 7.30
CC(C)n1cnc2c(NCc3ccc(-c4ccsc4)cc3)nc(N[C@H]3CC[C@H](N)CC3)nc21 ... 6.70
CC(C)n1cnc2c(NCc3ccc(-c4ccoc4)s3)nc(N[C@H]3CC[C@H](N)CC3)nc21 ... 6.70
CC(C)n1cnc2c(NCc3ccc(-c4ccccc4)nc3)nc(N[C@H]3CC[C@H](N)CC3)nc21 ... 7.40
CC(C)n1cnc2c(NCc3ccc(-n4cccn4)cc3)nc(N[C@H]3CC[C@H](N)CC3)nc21 ... 6.02
CC(C)n1cnc2c(NCc3ccc(-c4cccs4)s3)nc(N[C@H]3CC[C@H](N)CC3)nc21 ... 7.26
CC(C)n1cnc2c(NCc3ccc(-c4cccs4)cc3)nc(N[C@H]3CC[C@H](N)CC3)nc21 ... 7.05
CC(C)n1cnc2c(NCc3ccc(-c4cccc(F)c4)nc3)nc(N[C@H]3CC[C@H](N)CC3)nc21 ... 7.40
CC(C)n1cnc2c(NCc3csc(-c4ccccc4)n3)nc(N[C@H]3CC[C@H](N)CC3)nc21 ... 6.40
CC(C)n1cnc2c(NCc3csc(-c4ccccc4)c3)nc(N[C@H]3CC[C@H](N)CC3)nc21 ... 7.07
Cc1cccc(-c2ccc(CNc3nc(N[C@H]4CC[C@H](N)CC4)nc4c3ncn4C(C)C)s2)c1 ... 6.70
Cc1ccc(-c2ccc(CNc3nc(N[C@H]4CC[C@H](N)CC4)nc4c3ncn4C(C)C)cc2)s1 ... 6.70
CC(C)n1cnc2c(NCc3ccc(-c4ccccn4)s3)nc(N[C@H]3CC[C@H](N)CC3)nc21 ... 7.36
CC(C)n1cnc2c(NCc3ccc(-c4cccc(F)c4)s3)nc(N[C@H]3CC[C@H](N)CC3)nc21 ... 7.05

###

biological target: Cyclin-dependent kinase 2/cyclin A (Homo sapiens, UniProt P24941); test: Inhibition of recombinant Cdk2/cyclinA
Attribute: IC50
measurement_kind: IC50 (nM)

CC(C)n1cnc2c(NCc3coc(-c4ccccc4)c3)nc(N[C@H]3CC[C@H](N)CC3)nc21 ... 300
CC(C)n1cnc2c(NCc3ccc(-c4ccccc4)cn3)nc(N[C@H]3CC[C@H](N)CC3)nc21 ... 500
CC(C)n1cnc2c(NCc3ccc(-c4ccccc4F)s3)nc(N[C@H]3CC[C@H](N)CC3)nc21 ... 400
